# credit: patent US20260167721A1

- ASSAYED SYSTEM: T1, recombinant human CD3 epsilon/delta heterodimer (human, UniProt P07766 23-126; P04234 22-105)
- T1 construct: Recombinant protein in solution (200-50 nM) in the Octet assay; also called hCD3 E/D; human CD3E/D
- T1 sequence (P07766 23-126, stated change not applied, chain 1 of 2): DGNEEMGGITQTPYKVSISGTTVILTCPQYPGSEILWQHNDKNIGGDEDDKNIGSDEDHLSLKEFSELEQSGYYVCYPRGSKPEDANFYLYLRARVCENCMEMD
- T1 sequence (P04234 22-105, stated change not applied, chain 2 of 2): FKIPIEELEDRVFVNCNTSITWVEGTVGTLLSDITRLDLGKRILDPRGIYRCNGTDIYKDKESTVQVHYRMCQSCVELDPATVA
- TEST SUMMARY: Octet BLI, mAb on FAB2G sensor, hCD3 E/D 200-50 nM; R^2 0.99
PROPERTY MEASURED: Response
Hey, just send me the number, nothing else.

For record ABL-CD3-56 (antibody, V domains shown, Chimeric hybridoma mAb: human V, CH1, upper hinge; mouse middle hinge, CH2, CH3) VH: EVQLVESGGGLVKPGGSLRLSCVASGFTFSRYSMNWVRQAPGKGLEWVSSISSSSRYTYYADSLKGRFIMSRDNAKNSLFLQMNSLRAEDTAVYYCARNLYNALDYWGQGTLVTVSS VL: FMLTQPHSVSESPGKTVTISCTRSSGSIASNYVQWYQQRPGSSPTTVIYEDNQRPSGVPDRFSGSIDSSSNSASLTISGLQTEDEADYYCQSYDSSNRVFGGGTKLTVL the listed Response is 1.24

Value of measured Response for the entry ABL-CD3-12 (antibody, V domains shown, Chimeric hybridoma mAb: human V, CH1, upper hinge; mouse middle hinge, CH2, CH3) VH: EVQLVESGGGLVKPGGSLRLSCAASGFTFSSYTMNWVRQAPGKGLEWVSSISRSSSYKYYADSVKGRFTISRDNAKNSLYLQMNSLRAEDTAVYYCAREPPTLGMDYWGQGTLVIVSS VL: NFMLTQPHSVSESPGKTVTISCTRSNGSITSNYVQWYQQRPGSSPTTVIYEDNQRPSGVPDRFSGSIDSSSNSASLTISGLKTEDEADYYCQSFDNSNRVFGEKTKLTVL : 1.21

ABL-CD3-50 (antibody, V domains shown, Chimeric hybridoma mAb: human V, CH1, upper hinge; mouse middle hinge, CH2, CH3) VH: QVQLQQSGPGLVKPSQTLSLTCAISGDSVSSNSVAWNWIRQSPSRGLEWLGRTYSRSKWYNDYAVSVKSRITINPDTSKNQFSLELNSVTPEDTAVYYCARERKWELFLDYWGQGTLVTVSS VL: NFMLTQPHSVSESPGKTVTISCTRSSGSIASNYVQWYQQRPGISPTTVIYEDNQRPSGVPDRFSGSIDSSSNSASLTISGLKTEDEADYYCQSFDTSNVVFGGGTKLTVL has a reported Response of 0.57

Could you now consider this next binder?
Record ABL-CD3-54 (antibody, V domains shown, Chimeric hybridoma mAb: human V, CH1, upper hinge; mouse middle hinge, CH2, CH3) VH: EVQLVESGGGLVKPGGSLRLSCAASGFTFSSYSMNWVRQAPGKGLEWVSSISRSSRYIFYADSVRGRFTISRDNAKNSLYLQMNSLRAEDTAVYYCAREKRELLFDYWGQGTLVTVSS VL: NSMLTQPHSVSESPGKTVTISCTRSSGSIASYYVQWYQQRPGSSPTTVIYEDNQRPSGVPDRFSGSIDSSSNSASLTISGLKTEDEADYYCQSFDSSNRVFGGGTKLTVL , field Response: 0.87
